- test.target: AVP-V2 sites (Rattus norvegicus, UniProt Q00788)
- Construct: male rat liver (AVP-V1 sites) or kidney medulla (AVP-V2 sites); from tissue; host or cells: male rat kidney medulla, crude membranes
- Sequence (Q00788 whole entry): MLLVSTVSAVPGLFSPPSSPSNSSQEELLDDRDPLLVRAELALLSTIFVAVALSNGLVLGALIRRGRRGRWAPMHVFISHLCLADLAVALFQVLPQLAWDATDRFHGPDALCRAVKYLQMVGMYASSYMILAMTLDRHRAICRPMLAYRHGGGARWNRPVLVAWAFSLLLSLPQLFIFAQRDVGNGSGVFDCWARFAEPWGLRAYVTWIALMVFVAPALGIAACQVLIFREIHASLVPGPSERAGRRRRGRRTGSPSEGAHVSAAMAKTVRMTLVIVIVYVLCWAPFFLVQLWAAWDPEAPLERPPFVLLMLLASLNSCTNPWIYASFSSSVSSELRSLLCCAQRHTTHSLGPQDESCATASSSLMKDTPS
- protocol.summary: [^3 H]AVP binding to crude membrane preparation of male rat kidney medulla (AVP-V2 sites)
- run.conditions: rat kidney medulla membranes, 2 nM [^3 H]AVP; read-out: Receptor Binding Results IC50 (nM) [^3 H]-AVP-V2
Where a name gives a salt, the structure may show the parent alone. Square brackets hold non-standard residues; d marks the D form. Peptide text beside a SMILES is read from it. * marks the point of attachment. dNMeF = CN[C@H](Cc1ccccc1)C(=O)O; dPip = O=C(O)[C@H]1CCCCN1; Orn = NCCC[C@H](N)C(=O)O; Boc = CC(C)(C)OC(=O)*; Bn = c1ccc(C*)cc1
Give measured IC50 for each item. Keep answers brief.
One number for each entry, in nM.

[[record]]
molecule = "CC[C@H](C)[C@@H]1NC(=O)[C@@H](Cc2ccc(OCc3ccccc3)cc2)NC(=O)[C@@H]2CCCN2C(=O)[C@@H](Cc2ccccc2)N(C)C(=O)[C@H](CCCCN)NC(=O)[C@H]2CCCCN2C1=O [Example 145] (cyclo(I[dPip]K[dNMeF]P[dY](Bn)))"
test_target = "AVP-V2 sites (Rattus norvegicus, UniProt Q00788)"
test_readout = "IC50"
value_units = "nM"
measured_number = 10000


Now, please, on to the next molecule.
[Q] Indicate its recorded IC50; the molecule in question is CC[C@H](C)[C@@H]1NC(=O)[C@@H](Cc2c[nH]c3ccccc23)NC(=O)[C@@H]2CCCN2C(=O)[C@@H](Cc2c[nH]cn2)NC(=O)[C@H](CCCNC(=O)OC(C)(C)C)NC(=O)[C@H]2CCCCN2C1=O [Example 129, acetate salt] (cyclo(I[dPip][Orn](Boc)[dH]P[dW]))
[A] 10000

====

- test.target: uterine OT receptors (Rattus norvegicus, UniProt P70536)
- Construct: from tissue; host or cells: uterus of DES-treated rats, crude membranes
- Sequence (P70536 whole entry): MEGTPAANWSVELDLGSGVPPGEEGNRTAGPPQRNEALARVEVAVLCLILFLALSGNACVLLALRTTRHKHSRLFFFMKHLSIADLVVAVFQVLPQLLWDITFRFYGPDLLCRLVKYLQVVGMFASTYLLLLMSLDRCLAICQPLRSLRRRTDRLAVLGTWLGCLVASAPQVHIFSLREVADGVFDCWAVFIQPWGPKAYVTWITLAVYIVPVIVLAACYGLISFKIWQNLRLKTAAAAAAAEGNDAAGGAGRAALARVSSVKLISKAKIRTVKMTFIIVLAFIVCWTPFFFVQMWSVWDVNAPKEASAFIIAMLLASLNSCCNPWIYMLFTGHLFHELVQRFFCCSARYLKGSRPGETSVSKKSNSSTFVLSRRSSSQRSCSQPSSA
- protocol.summary: [^3 H]OT binding to uterine OT receptors, crude membrane preparation of uteri from DES-treated rats
- run.conditions: 1 h; @ 100 (nM); read-out: [^3 H]OT: percent inhibition of radioligand at the given concentration
Numbered stars: 1 amine (or outer) side, 2 acyl side, 3 side chain; on linkers, the order of the positions; unused ones are H or OH. Square brackets hold non-standard residues; d marks the D form. Peptide text beside a SMILES is read from it. * marks the point of attachment. dPip(4-aza,4-Cbz) = O=C(O)[C@H]1CN(C(=O)OCc2ccccc2)CCN1; X2 = O=C(OCc1ccccc1)N1CCN([*:1])[C@H](C(=O)[*:2])C1; d1Nal = N[C@H](Cc1cccc2ccccc12)C(=O)O; dNMeF = CN[C@H](Cc1ccccc1)C(=O)O; dOrn = NCCC[C@@H](N)C(=O)O; Pip = O=C(O)[C@@H]1CCCCN1; dPip = O=C(O)[C@H]1CCCCN1; Orn = NCCC[C@H](N)C(=O)O; Cbz = O=C(OCc1ccccc1)*; Boc = CC(C)(C)OC(=O)*
Hi, to clarify the labels: y covers inhibition at 0.1 µM from 40% upward, n covers anything below 40%.

Some entries whose results are on file:
[[record]]
compound = "CC[C@H](C)[C@@H]1NC(=O)[C@@H](Cc2c[nH]c3ccccc23)NC(=O)[C@@H]2CCCN2C(=O)[C@@H](Cc2ccccc2)NC(=O)[C@@H]2CN(C(=O)OCc3ccccc3)CCN2C(=O)[C@H]2CCCCN2C1=O [Example 89] (cyclo(I[dPip][X2][dF]P[dW]))"
label = "n"

[[record]]
compound = "CC[C@H](C)[C@@H]1NC(=O)[C@@H](Cc2ccc(OC)cc2)NC(=O)[C@@H]2CCCN2C(=O)[C@@H](Cc2ccccc2)N(C)C(=O)[C@H](CCCCNC(=O)OC(C)(C)C)NC(=O)[C@H]2CCCCN2C1=O [Example 149] (cyclo(I[dPip]K(Boc)[dNMeF]P[dY](Me)))"
label = "y"

[[record]]
compound = "CC[C@H](C)[C@@H]1NC(=O)[C@@H](Cc2cccc3ccccc23)NC(=O)[C@@H]2CCCN2C(=O)[C@@H](Cc2ccccc2)N(C)C(=O)[C@H](CCCCNC(=O)OC(C)(C)C)NC(=O)[C@H]2CCCCN2C1=O [Example 139] (cyclo(I[dPip]K(Boc)[dNMeF]P[d1Nal]))"
label = "n"

[[record]]
compound = "CC[C@H](C)[C@@H]1NC(=O)[C@@H](Cc2ccccc2)NC(=O)[C@@H]2CCCN2C(=O)[C@@H](CCCN)NC(=O)[C@@H]2CCCCN2C(=O)[C@H]2CCCCN2C1=O [Example 39] (cyclo(I[dPip][Pip][dOrn]P[dF]))"
label = "n"

[[record]]
compound = "CC[C@H](C)[C@@H]1NC(=O)[C@@H](Cc2c[nH]c3ccccc23)NC(=O)[C@@H]2CCCN2C(=O)[C@H](Cc2c[nH]cn2)NC(=O)[C@H](CCCNC(=O)OCc2ccccc2)NC(=O)[C@H]2CCCN2C1=O [Example 95] (cyclo([dW]I[dP][Orn](Cbz)HP))"
label = "n"


[Q] Assess whether reported inhibition at 0.1 µM for CC[C@H](C)[C@@H]1NC(=O)[C@@H](Cc2c[nH]c3ccccc23)NC(=O)[C@@H]2CCCN2C(=O)[C@@H](Cc2c[nH]cn2)NC(=O)[C@H](CCCCNC(=O)OCc2ccccc2)NC(=O)[C@H]2CCCCN2C1=O [Example 38] (cyclo(I[dPip]K(Cbz)[dH]P[dW])) sits at 40% or higher.
[A] y

[Q] Assess whether reported inhibition at 0.1 µM for CC[C@H](C)[C@@H]1NC(=O)[C@@H](Cc2c[nH]c3ccccc23)NC(=O)[C@@H]2CCCN2C(=O)[C@@H](Cc2c[nH]c3ccccc23)NC(=O)[C@H](CCCCNC(=O)OCc2ccccc2)NC(=O)[C@H]2CCCCN2C1=O [Example 29] (cyclo(I[dPip]K(Cbz)[dW]P[dW])) sits at 40% or higher.
[A] n

[Q] Assess whether reported inhibition at 0.1 µM for CC[C@H](C)[C@@H]1NC(=O)[C@@H](Cc2c[nH]c3ccccc23)NC(=O)[C@@H]2CCCN2C(=O)[C@@H](Cc2ccccc2)NC(=O)[C@H]2CN(C(=O)OCc3ccccc3)CCN2C(=O)[C@H]2CCCCN2C1=O [Example 90] (cyclo(I[dPip][dPip(4-aza,4-Cbz)][dF]P[dW])) sits at 40% or higher.
[A] y
